Record form. Attribute: GI50. Fill in for each entry.
System: M19-MEL
Assay: NCI tumour cell line growth inhibition, 48 h
The source made the active and inactive calls. Cut-off read from the data, not from the text of the source: active = GI50 up to about 1.1 µM and inactive = higher.

Answer with the recorded GI50 of CN1Cc2cc3c(cc2-c2ccccc21)OCO3 only. > 100 µM (inactive)

Answer with the recorded GI50 of CC1=C(C2=C(C)C(=O)c3c(c(C=O)c(O)c(O)c3C(C)C)C2=O)C(=O)c2c(C=O)c(O)c(O)c(C(C)C)c2C1=O only. 4.32 µM (inactive)

Answer with the recorded GI50 of CC(C)c1oc(=O)cc2c1C(O)C1OC(=O)C3(C)C(O)C4OC4C2(C)C13 (stereo not given) only. 1.26 µM (inactive)

Answer with the recorded GI50 of COC(=O)c1sc(=O)n(-c2ccccc2)c1SCc1ccccc1 only. > 100 µM (inactive)

Answer with the recorded GI50 of NC(=O)c1cc([N+](=O)[O-])cc([N+](=O)[O-])c1 [NITROMIDE] only. 22.4 µM (inactive)

###

Record form. Attribute: GI50. Fill in for each entry.
System: OVCAR-5
Assay: NCI tumour cell line growth inhibition, 48 h
Activity calls are given as the source filed them. Rule as the data show it: active = GI50 up to about 1.1 µM and inactive = higher.

Answer with the recorded GI50 of CC1=C(C2=C(C)C(=O)c3c(c(C=O)c(O)c(O)c3C(C)C)C2=O)C(=O)c2c(C=O)c(O)c(O)c(C(C)C)c2C1=O [GOSSYPOLONE] only. 1.89 µM (inactive)

Answer with the recorded GI50 of CCOC(=O)CSC(=O)NCCCl only. > 100 µM (inactive)

Answer with the recorded GI50 of CSc1ccc2c(cc1=O)[C@@H](NC(=O)c1cccc([N+](=O)[O-])c1)CCc1cc(O)c(O)c(O)c1-2 only. > 100 µM (inactive)

Answer with the recorded GI50 of CC(=NNC(=S)Nc1ccccc1C)c1cccc(C(C)=NNC(=S)Nc2ccccc2C)n1 only. > 100 µM (inactive)

Answer with the recorded GI50 of COc1ccc2c(=O)oc3c(OC)cc(CCN(C)C)c4c(=O)oc1c2c34 [TASPINE] only. 11.7 µM (inactive)

Answer with the recorded GI50 of N=C(N)N/N=C\c1c(-c2cccc([N+](=O)[O-])c2)nc2sc(Cl)cn12 only. 3.91 µM (inactive)

Answer with the recorded GI50 of O=S(=O)(O)c1ccc2cc(/N=N\c3cc(S(=O)(=O)O)c4cccnc4c3O)ccc2c1 only. > 100 µM (inactive)

Answer with the recorded GI50 of CN1c2ccccc2SC2C(c3ccccc3)=NOC21 (configuration not stated) only. 94.8 µM (inactive)

Answer with the recorded GI50 of Cc1c(CCO)c(O)n2c(nc3ccccc32)c1C#N only. > 100 µM (inactive)

Answer with the recorded GI50 of O=[N+]([O-])c1ccc(C(Cl)C(Cl)c2ccc(C(Cl)C(Cl)c3ccc([N+](=O)[O-])cc3[N+](=O)[O-])cc2)c([N+](=O)[O-])c1 (configuration not stated) only. 1.86 µM (inactive)

Answer with the recorded GI50 of CC(=O)[C@H]1CC[C@@H]2[C@]1(C)CC=C1[C@]23C=C[C@]2(C[C@@H](O)CC[C@]12C)C(C(=O)O)C3C(=O)O (some centres not stated) only. > 100 µM (inactive)

Answer with the recorded GI50 of O=S(=O)(O)c1cc(/N=N/c2c(O)ccc3ccccc23)cc2c(S(=O)(=O)O)cccc12 only. > 100 µM (inactive)

Answer with the recorded GI50 of CCCNC(=O)OCc1c(COC(=O)NCCC)c(-c2ccc(Cl)c(Cl)c2)n2c1CCC2 only. 3.76 µM (inactive)

Answer with the recorded GI50 of COS(=O)CCOC(=O)c1ccccc1SSc1ccccc1C(=O)OCCS(=O)OC (configuration not stated) only. 40.9 µM (inactive)

Answer with the recorded GI50 of CCN(CC)CCCNc1ncc(C)c2c1c1ccc3c(O)cccc3c1n2C only. 5.57 µM (inactive)

Answer with the recorded GI50 of Nc1nc(Cl)cc(NCC2(CCO)CCC2)n1 only. > 100 µM (inactive)

Answer with the recorded GI50 of O=S(=O)(Oc1ccc2ccccc2c1-c1c(OS(=O)(=O)C(F)(F)F)ccc2ccccc12)C(F)(F)F only. > 100 µM (inactive)

###

Test system: HOP-92
Assay: NCI tumour cell line growth inhibition, 48 h
Activity calls are given as the source filed them. No stated cut-off is given here; in the data, active = GI50 up to about 1.1 µM and inactive = higher.
Record form. Attribute: GI50. Fill in for each entry.

Answer with the recorded GI50 of COC(=O)CCC1(CCC(=O)OC)CCCCCCC(CCC(=O)OC)(CCC(=O)OC)C(=O)C1=O only. 54.6 µM (inactive)

Answer with the recorded GI50 of COc1cccc(-c2nc(-c3cnccn3)n(Cc3ccccc3)n2)c1 only. 26.5 µM (inactive)

Answer with the recorded GI50 of CCN(CC)c1ccc(C(=C2C=CC(=[N+](CC)CC)C=C2)c2ccc(N(CC)CC)cc2)cc1 only. 0.211 µM (active)

Answer with the recorded GI50 of Cc1cc(C)c(/C=C2\C(=O)Nc3ccccc32)[nH]1 [SEMAXANIB] only. 48.3 µM (inactive)

Answer with the recorded GI50 of OC1(c2ccccc2)CCCCCCCCC(O)(c2ccccc2)CCCCCCCC1 (stereo unspecified) only. > 100 µM (inactive)

Answer with the recorded GI50 of CC(=O)OCCOCn1cnc2c(Cl)nc(Cl)nc21 only. 1.67 µM (inactive)

Answer with the recorded GI50 of COc1cc(-c2cc(O)c3cc4c(cc3n2)OCO4)cc(OC)c1OC only. 20.7 µM (inactive)

Answer with the recorded GI50 of Cc1nc2ccc(F)cc2c2c1CCO2 only. 78.7 µM (inactive)

Answer with the recorded GI50 of CC1(C)CC(=O)C(=CNc2nc(-c3ccccc3)cs2)C(=O)C1 only. 71 µM (inactive)

Answer with the recorded GI50 of Sc1ncnc2c1ncn2Cc1ccco1 only. > 100 µM (inactive)

Answer with the recorded GI50 of Cc1ccc(C(=O)C2C=C(c3ccc(C)cc3)SC3C=CCC32)cc1 (stereo unspecified) only. 17.8 µM (inactive)

###

Tested on: HCT-15
Define the label as condition met when GI50 is strictly less than 20 µM and as condition not met in all remaining cases.

Does C/C(=N/NC(=S)Nc1ccc([N+](=O)[O-])cc1)c1cccc(/C(C)=N\NC(=S)Nc2ccc([N+](=O)[O-])cc2)n1 have GI50 strictly under 20 µM? condition met

Does CC(C)[C@H](CCl)NC(=O)c1cccc(C(=O)N[C@H](CCl)C(C)C)n1 (stereo in doubt) have GI50 strictly under 20 µM? condition not met

Does Oc1c(N2CCOCC2)cc(-c2cc(N3CCOCC3)c(O)c3ccccc23)c2ccccc12 have GI50 strictly under 20 µM? condition met

Does CSC1(SC2=NCCN2)SC2(NCCN2)S1 have GI50 strictly under 20 µM? condition met

Does CCC(=O)OCN(C)c1nc(N(C)COC(=O)CC)nc(N(C)COC(=O)CC)n1 have GI50 strictly under 20 µM? condition not met

Does O=C1Cc2c([nH]c3cc(Br)ccc23)-c2ccccc2N1 have GI50 strictly under 20 µM? condition met

Does Oc1nc(-c2ccc3ccccc3c2)nc2ccccc12 have GI50 strictly under 20 µM? condition not met

Does Cc1ccc(-c2cc(-c3ccc(Cl)cc3)nc(/N=C3\C(=O)N(CN4CCOCC4)c4ccccc43)n2)cc1 have GI50 strictly under 20 µM? condition not met

Does O=C(O)C(Cc1cccs1)NC(=O)C(F)(F)F (centres undefined) have GI50 strictly under 20 µM? condition not met

Does N#Cc1nc(COCCOCc2ccc(F)cc2)oc1N have GI50 strictly under 20 µM? condition not met

Does CCOC(=O)C1S/C(=N\c2ccc(Cl)cc2Cl)N=C1C (centres undefined) have GI50 strictly under 20 µM? condition not met

Does CC(=O)OC1C(O)COC(O[C@H]2CC[C@]34C[C@]35CC[C@]3(C)C([C@@]6(C)CC[C@@H](C(C)(C)O)O6)[C@@H](O)C[C@@]3(C)C5C[C@H](OC3OCC(O)C(O)C3O)[C@H]4C2(C)C)C1OC1OCC(O)C(O)C1O (some centres undefined) have GI50 strictly under 20 µM? condition not met

Does O=[N+]([O-])c1ccc(Sc2c3ccccc3nc3ccccc23)cn1 have GI50 strictly under 20 µM? condition met

Does CN1c2ccccc2SC2C(c3ccccc3)=NOC21 (centres undefined) have GI50 strictly under 20 µM? condition met

Does CCOC(=O)C(C/C=C/CO)N(C)C(=O)OC(C)(C)C (centres undefined) have GI50 strictly under 20 µM? condition not met

Does O=C(/C=C/c1ccccc1)NNC(=O)c1c(Cl)c(Cl)c(Cl)c(Cl)c1-c1nc2ccccc2[nH]1 have GI50 strictly under 20 µM? condition not met

Does C=C1c2nc3ccccc3n2C=C(c2ccc(OC)cc2)N1c1ccccc1 have GI50 strictly under 20 µM? condition met

Does CC(C)c1oc(=O)cc2c1C(O)C1OC(=O)C3(C)C(O)C4OC4C2(C)C13 (centres undefined) have GI50 strictly under 20 µM? condition met

Data provenance is ChEMBL document CHEMBL1201862.
